- Test system: Human Foreskin Fibroblasts (HFF)
- procedure-summary: Cellular cytotoxicity, CellTiter-Glo Luminescent Cell Viability Assay
- run-conditions: drug concentration that leads to 50% cellular cytotoxicity; mean and SD, at least five experiments in triplicates
property-name: CC50 (µM)
Numbers only, in µM.

// C[C@H]1[C@H](OC(=O)CCC(=O)O)O[C@@H]2O[C@@]3(C)CC[C@H]4[C@H](C)CC[C@@H]1[C@@]24OO3 [Artesunate (2d), Artesunate] : CC50 value = 77.5
